biological target: T1, native-sequence human IGFBP-3 (human, UniProt P17936 28-291); assay: BIAcore competition: bp15 (15 nM to 100 µM) pre-incubated 1 h with 20 nM IGFBP-3, injected over immobilised biotinylated IGF-II (bIGF-II, triangles); blocked ligand IGF-II; one-site competition fit
T1 construct: also called wild-type IGFBP-3; full-length IGFBP-3
T1 sequence (P17936 other isoform, or with tags, fused parts or gaps): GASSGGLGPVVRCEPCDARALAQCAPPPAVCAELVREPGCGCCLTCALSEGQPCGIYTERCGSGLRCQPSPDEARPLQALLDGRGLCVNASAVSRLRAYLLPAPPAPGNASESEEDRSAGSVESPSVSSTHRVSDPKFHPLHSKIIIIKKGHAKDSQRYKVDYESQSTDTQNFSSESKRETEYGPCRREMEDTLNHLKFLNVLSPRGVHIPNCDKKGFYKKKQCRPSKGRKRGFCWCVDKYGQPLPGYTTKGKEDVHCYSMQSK
resultType: pIC50
Notebook: values listed as pIC50 are -log10 of the concentration (mol/L).

Sample SEEVCWPVAEWYLCN (Identified by phage display (Lowman et al. 1998); also called bp15 peptide) [peptide bp15] — what was its pIC50? 6.83
